Answer each item with its documented RP-LC retention time.
Test: gradient 5% acetonitrile 3 min, to 50% in 2 min, to 85% in 15 min, held 3 min, 100 µL/min
Settings: column: Zorbax Extend-C18 2.1 x 50 mm; eluents: water / acetonitrile, 0.1% formic acid
Answers are plain numbers, in s.

Examples with their reported RP-LC retention time follow.
INSERT INTO measurements (molecule, propertymeasured, resultnumber) VALUES
  ('COc1ccc(NC(=O)C2c3ccccc3C(=O)N3CCc4ccccc4C23)cc1OC (centres undefined)', 'RP-LC retention time', 762),
  ('Cc1ccc(NC(=O)CN2C(=O)CCS(=O)(=O)c3ccccc32)c(C)c1', 'RP-LC retention time', 768),
  ('Cc1nn(C(=O)CC(C)C)c(C)c1S(=O)(=O)N1CCCC1', 'RP-LC retention time', 586),
  ('Cc1cccc(-n2c(=O)c3c(cc(C)n3C)n(CC(=O)N(C)c3ccccc3)c2=O)c1', 'RP-LC retention time', 864),
  ('CCn1cnc(S(=O)(=O)N2CCCC(C(=O)Nc3ccc(C)cc3C)C2)c1 (centres undefined)', 'RP-LC retention time', 753),
  ('CN(C)c1ccc(-c2nc(-c3cn(Cc4ccc(F)cc4)nn3)no2)cc1', 'RP-LC retention time', 1010),
  ('Cn1cc(C(=O)NCc2cc(F)cc(F)c2)c(S(=O)(=O)N2CCSCC2)n1', 'RP-LC retention time', 1010),
  ('COc1cccc(CCC(=O)N2C[C@@H]3C[C@H]2C[C@@H]3NC(=O)c2cccs2)c1', 'RP-LC retention time', 753);

Report RP-LC retention time for each item below.
1. O=C(c1ccccc1)N1CCCCC1c1nncn1CC1CC1 (centres undefined)
2. Cc1ccc(-c2nnc(Cc3nc(-c4ccc(F)c(F)c4)no3)o2)cc1F
3. CCNc1cc(N2CCC(CCC(=O)NCc3nc4ccccc4n3C)CC2)ncn1
4. Cc1cccc(C)c1-n1ccn(Cc2nc(-c3ccc(Cl)cc3)no2)c(=O)c1=O
5. O=C(Nc1cnc(N2CCCC2)nc1)c1ccc(Cl)cc1
6. Cc1ccc(CC(=O)NC2CCN(c3nnc4cccc(C)n34)CC2)cc1
7. Cc1cc(C)cc(C(=O)N2CCCC(C(=O)NC3CCCCCCC3)C2)c1 (centres undefined)
8. O=C(C1CCN(S(=O)(=O)Cc2ccc(Cl)cc2)CC1)N1CCOCC1

1: 592; 2: 1110; 3: 554; 4: 978; 5: 765; 6: 680; 7: 1040; 8: 725

Hey, can you go through the list below and give me RP-LC retention time for every item?
1. Cc1ccc2nc(NC(=O)CSc3nc4c(c(=O)n3-c3ccccc3)SCC4)sc2c1
2. CC(=O)N1CCC(Cc2noc(C3CC3)n2)C1 (centres undefined)
3. O=C(Nc1nccs1)C1CCN(C(=O)c2cc(-c3ccccc3)on2)CC1
4. Fc1cccc(Cn2cc(-c3noc(C4CCCC4)n3)nn2)c1
5. O=C(NCc1ccc(Br)cc1)c1ccc(=O)n(CCN2CCCC2)c1
6. CC1CCCN(CCCNC(=O)c2nnc(-c3ccc(S(=O)(=O)N4CCCC4)cc3)o2)C1 (centres undefined)
7. Cc1nc(-c2ccc(OC3CCN(C(=O)CCc4nc5ccccc5[nH]4)C3)cc2)no1 (centres undefined)

1: 922; 2: 625; 3: 732; 4: 1010; 5: 630; 6: 642; 7: 643

Can you give me RP-LC retention time for all of these, one by one?
1. CCOc1ccc2c(c1)SC(CC(=O)Nc1ccccc1[N+](=O)[O-])C(=O)N2 (centres undefined)
2. Cc1cc(Cn2cnc3c2C[C@@H](C(=O)O)N(C(=O)C(c2ccccc2)c2ccccc2)C3)ccc1N
3. CN1CCN(C(=O)c2csc(N3CCN(c4ccccc4F)CC3)n2)CC1
4. O=c1ccc(N2CCCN(S(=O)(=O)c3ccc(F)cc3F)CC2)nn1-c1ccccc1
5. O=C(C1CCOC1)N1CCC(c2nncn2Cc2ccccc2)CC1 (centres undefined)
6. COc1ccc(-c2noc(CN3C(=O)C(C)Oc4ccccc43)n2)c(OC)c1 (centres undefined)
7. CCOc1ccc(NC(=O)C2CCN(S(=O)(=O)c3cc(-c4noc(C)n4)cs3)CC2)cc1
8. COCCNc1ncc(C(=O)O)c(-c2cccc(C)c2)n1

[822, 700, 649, 842, 541, 956, 917, 700]

Quick one: give me RP-LC retention time for each item below, same order please.
1. COc1ccc(OCc2noc(CNS(=O)(=O)c3ccc4c(c3)CCCC4)n2)cc1
2. CCOC(=O)c1c(N)n(Cc2ccccc2)c2nc3ccccc3nc12
3. COCCNC(=O)CSc1nccc2c1ccn2Cc1ccc(F)cc1
4. CS(=O)(=O)N1CCC(C(=O)Nc2sccc2C#N)CC1
5. CCCCNC(=O)Cn1c(C)nc2onc(CC)c2c1=O
6. CC(C)CN(CC(C)C)C(=O)C1CCN(S(=O)(=O)c2cccc3nsnc23)CC1

1: 968; 2: 739; 3: 668; 4: 662; 5: 726; 6: 1040

// for each molecule below, give its RP-LC retention time
1. COCCCNC(=O)CN1C(=O)C2CCCCN2c2ccc(C(=O)N3CCCC3)cc21 (centres undefined)
2. C=CCn1ccc2c(OCC(=O)Nc3cc(C)on3)cccc2c1=O

1: 696; 2: 750

---

Assay: gradient 5% acetonitrile 3 min, to 50% in 2 min, to 85% in 15 min, held 3 min, 100 µL/min
Details: column: Zorbax Extend-C18 2.1 x 50 mm; eluents: water / acetonitrile, 0.1% formic acid
// map RP-LC retention time onto a label; ranges lo (below 700 s), mid (700 s to below 800 s), hi (800 s or more)

# example entries with known answers
INSERT INTO measurements (molecule, assignedlabel) VALUES
  ('O=C(NCc1cscn1)C1CCN(S(=O)(=O)c2ccc(Cl)s2)CC1', 'mid'),
  ('CC(C)c1noc(COC2CCN(C(=O)Cn3ccnc3)CC2)n1', 'lo'),
  ('CSc1cccc(NC(=O)C2CCCN(C(=O)c3ccc(Cl)cc3)C2)c1 (stereo not given)', 'hi');

Into which bin does this molecule go? COc1cccc(-c2nnc(Cc3nc(-c4cccc(C(F)(F)F)c4)no3)o2)c1
hi

Param item: Cc1ccc(NC(=O)C2CCCN(c3cn[nH]c(=O)c3)C2)cc1C (stereo not given)
mid

What would you report for Nc1ccc(/C=C/c2ccc3ncccc3c2)cc1 ?
lo

---

Test: gradient 5% acetonitrile 3 min, to 50% in 2 min, to 85% in 15 min, held 3 min, 100 µL/min
Settings: column: Zorbax Extend-C18 2.1 x 50 mm; eluents: water / acetonitrile, 0.1% formic acid
Each record's RP-LC retention time is compared with group 1 (below 800 s), group 2 (800 s to below 900 s), group 3 (900 s or more) to give its class.

INSERT INTO measurements (compound, assignedlabel) VALUES
  ('CN(c1nc(-c2ccc([N+](=O)[O-])cc2)nc2ccccc12)C1CCCCC1', 'group 3');

Using the reported RP-LC retention time, which band applies to O=[N+]([O-])c1ccc(-c2cn(-c3ccc(Cl)cc3)cn2)cc1 ?
group 3

// next record COc1ccc(-c2nnc(-c3ccc(-n4ccnc4)nc3)o2)cc1
group 1

And then O=C(CSc1nc(-c2ccccc2)cs1)NCc1ccco1 , what is it?
group 2

Continue with O=C(Cn1cccc1-c1nc(-c2ccc(F)cc2)no1)N1CCc2ccccc21
group 3

---

Provide the reported RP-LC retention time of each item.
Assay: gradient 5% acetonitrile 3 min, to 50% in 2 min, to 85% in 15 min, held 3 min, 100 µL/min
Details: column: Zorbax Extend-C18 2.1 x 50 mm; eluents: water / acetonitrile, 0.1% formic acid
Give bare numbers, in s.

INSERT INTO assay_data (molecule, resultnumber) VALUES
  ('Cc1cccc(N2CCN(c3cc(C)nc4c(-c5ccccc5)cnn34)CC2)n1', 738);

For the 8 molecules below, give their RP-LC retention time values.
1. Cc1ccc(S(=O)(=O)N2CCc3c(c(-c4nnc(-c5ccc(F)cc5)o4)nn3C)C2)cc1C
2. COc1ccc(-c2nc3ncccn3c2Nc2ccc(C)cc2)cc1
3. Cc1ccc(-c2coc3cc4oc(=O)c(CC(=O)N5CCC(C(N)=O)CC5)c(C)c4cc23)cc1
4. COc1ccccc1-c1nnc(NC(=O)c2c[nH]c3ccccc23)o1
5. CCc1nnc(-c2ccc3ccn(CC(=O)NCc4ccccn4)c3c2)o1
6. CCCN1C(=O)C2CCC(=O)N2c2ccc(C(=O)N3CCN(CC)CC3)cc21 (centres undefined)
7. Cc1cccc2nc(-c3c(F)cccc3Cl)c(Nc3ccc4c(c3)OCCO4)n12
8. COc1ccc(-c2noc(-c3c(SC)nn(CC(=O)Nc4ccccc4)c3N)n2)cc1

1. 851
2. 744
3. 813
4. 678
5. 629
6. 561
7. 678
8. 934
